Origin of measurements: paper PMC13210772

Assay: Non-enzymatic stability under cellular assay conditions (HPLC)
Type: physicochemical
Conditions: compound remaining, assay medium DMEM, 37 °C, 6 h
We begin with a simple list: items and their reported 6 h- %.
The reply should be a number in %, with the unit left off.

Here are 2 molecules together with their reported answers.
# molecule, measured-property, unit-label, value-measured
rows = [
    ("Cc1ncsc1-c1ccc([C@H](C)NC(=O)[C@@H]2C[C@@H](O)CN2C(=O)[C@@H](NC(=O)CCCCCCNC(=O)c2cc(Oc3ccc(NC(=O)Nc4cc(C(C)(C)C)on4)cc3)ccn2)C(C)(C)C)cc1", "6 h- %", "%", 99.6),
    ("Cc1ncsc1-c1ccc([C@H](C)NC(=O)[C@@H]2C[C@@H](O)CN2C(=O)[C@@H](NC(=O)[C@H]2CC[C@H](C(=O)N3CCC(CCNC(=O)c4cc(Oc5ccc(NC(=O)Nc6cc(C(C)(C)C)on6)cc5)ccn4)CC3)CC2)C(C)(C)C)cc1", "6 h- %", "%", 102.6),
]

Then this molecule:
Any idea what 6 h- % was measured for CNC(=O)c1cc(Oc2ccc(NC(=O)Nc3cc(C(C)(C)C)on3)cc2)ccn1 [MA68, reference compound] ?
101.0

* * *

Tested on: FLT3-ITD
Assay: KINOMEscan binding assay
measured-property: % FLT3-ITD Binding at 1 µM
Kindly report the value followed by its unit.

These recorded examples may help you get a feel for the data.
# compound-string, % FLT3-ITD Binding at 1 µM
records = [
    ("Cc1ncsc1-c1ccc([C@H](C)NC(=O)[C@@H]2C[C@@H](O)CN2C(=O)[C@@H](NC(=O)CCCCCCCNC(=O)c2cc(Oc3ccc(NC(=O)Nc4cc(C(C)(C)C)on4)cc3)ccn2)C(C)(C)C)cc1", "84 ± 1%"),
    ("Cc1ncsc1-c1ccc([C@H](C)NC(=O)[C@@H]2C[C@@H](O)CN2C(=O)[C@@H](NC(=O)CCCCCNC(=O)c2cc(Oc3ccc(NC(=O)Nc4cc(C(C)(C)C)on4)cc3)ccn2)C(C)(C)C)cc1", "89 ± 2%"),
    ("Cc1ncsc1-c1ccc([C@H](C)NC(=O)[C@@H]2C[C@@H](O)CN2C(=O)[C@@H](NC(=O)[C@H]2CC[C@H](C(=O)N3CCC(CCNC(=O)c4cc(Oc5ccc(NC(=O)Nc6cc(C(C)(C)C)on6)cc5)ccn4)CC3)CC2)C(C)(C)C)cc1", "71 ± 1%"),
]

Reported % FLT3-ITD Binding at 1 µM, molecule Cc1ncsc1-c1ccc([C@H](C)NC(=O)[C@@H]2C[C@@H](O)CN2C(=O)[C@@H](NC(=O)CCOCCOCCNC(=O)c2cc(Oc3ccc(NC(=O)Nc4cc(C(C)(C)C)on4)cc3)ccn2)C(C)(C)C)cc1 : ____
89 ± 2%

* * *

Assay: Nephelometric solubility
Type: physicochemical
Conditions: aqueous buffer, kinetic from dmso stock; PBS buffer, nephelometry
measured-property: solubility (µM)
Express it in µM; write the number only.

Value lookup for solubility; key = CNC(=O)c1cc(Oc2ccc(NC(=O)Nc3cc(C(C)(C)C)on3)cc2)ccn1 [MA68, reference compound]
45.8

Which solubility reading was recorded for the molecule Cc1ncsc1-c1ccc([C@H](C)NC(=O)[C@@H]2C[C@@H](O)CN2C(=O)[C@@H](NC(=O)[C@H]2CC[C@H](C(=O)N3CCN(CCNC(=O)c4cc(Oc5ccc(NC(=O)Nc6cc(C(C)(C)C)on6)cc5)ccn4)CC3)CC2)C(C)(C)C)cc1 [MA191] ?
47.7
